Molecular target: Virion infectivity factor (Human immunodeficiency virus type 1 group M subtype B (isolate BH10)) + Virion infectivity factor (Human immunodeficiency virus type 1 group M subtype B (isolate BRU/LAI)) + Virion infectivity factor (Human immunodeficiency virus type 1 group M subtype B (isolate PCV12)) + Virion infectivity factor (Human immunodeficiency virus type 1 group M subtype B (isolate HXB2)) + DNA dC->dU-editing enzyme APOBEC-3G (Homo sapiens) (UniProt P69720+P69721+P69722+P69723+Q9HC16)
Assay: inhibitors of Vif binding to APOBEC3G peptide, primary screen, biochemical, TR-FRET, GST-Vif 1-94, biotin-A3G peptide, dose response retest (AID 1117319);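 further: Vif residues 1-94 fused to GST binding biotinylated APOBEC3G peptide 110-148; 0% = full assay without inhibitor and 100% = GST in place of GST-Vif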
Conditions: hits give high values
Out of some 260,000 compounds screened, about 1,500 (0.58%) were called active. Another 5% or so got no clear call; they are omitted. Not all results are given here. Entries with a potency or affinity are not part of this list.
observed_property: inhibition (%)
Report the figure in % without appending any unit label.

Observe how each entry below is paired with its result.
CCn1c2ccccc2c2cc(NC(=O)c3cccc([N+](=O)[O-])c3C)ccc21: -6.86
Cc1nc(N2CCOCC2)c2c3c(sc2n1)CCC3: -7.05
Cc1nn(Cc2cccc(Oc3ccccc3)c2)c(C)c1NC(=O)NC12CC3CC(CC(C3)C1)C2: -5.96
O=C1CC(NS(=O)(=O)c2cccnc2)CN1c1ccc(F)cc1 (centres undefined): -4.88
CCOC(=O)N1CCC(NC(=O)c2cnn3cccnc23)CC1: -2.64
COc1ccc(S(=O)(=O)N(CC(=O)NCc2ccco2)C2CCCCC2)cc1OC: 24

Query: Please report the measured inhibition for CC(CC(C)C(=O)Nc1ccccc1C(C)(C)C)C(=O)O (centres undefined)
Reply: 5.47

Query: Please report the measured inhibition for "CCN(CC)c1cc(Cl)c2nonc2c1N"
Reply: 0.28

Query: Please report the measured inhibition for "COc1ccc(S(=O)(=O)/N=C2/C=CC(=O)C(C)=C2C)cc1"
Reply: 9.79

----------
inhibition values by entry
Target: Virion infectivity factor (Human immunodeficiency virus type 1 group M subtype B (isolate BH10)) + Virion infectivity factor (Human immunodeficiency virus type 1 group M subtype B (isolate BRU/LAI)) + Virion infectivity factor (Human immunodeficiency virus type 1 group M subtype B (isolate PCV12)) + Virion infectivity factor (Human immunodeficiency virus type 1 group M subtype B (isolate HXB2)) + DNA dC->dU-editing enzyme APOBEC-3G (Homo sapiens) (UniProt P69720+P69721+P69722+P69723+Q9HC16)
Experiment: inhibitors of Vif binding to APOBEC3G peptide, primary screen, biochemical, TR-FRET, GST-Vif 1-94, biotin-A3G peptide, dose response retest (AID 1117319);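 further: Vif residues 1-94 fused to GST binding biotinylated APOBEC3G peptide 110-148; 0% = full assay without inhibitor and 100% = GST in place of GST-Vif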
Conditions: hits give high values
In all, about 260,000 compounds went through this assay and about 1,500 (0.58%) were called active. Another 5% or so got no clear call; they are omitted. Only a sample is shown. Results with a measured potency or affinity are listed apart.
Report the figure in % without appending any unit label.

Observe how each entry below is paired with its result.
CC1=NN(c2ccccc2)C(=O)/C1=C\c1cc(C)n(C)c1C: 6.69
CN(CCc1ccccn1)S(=O)(=O)c1ccc(F)cc1: 1.96

Query: Please report the measured inhibition for "Cc1ccnc(NC(=O)c2cccc(S(=O)(=O)NCc3ccccc3)c2)c1"
Reply: -2.28

Query: Please report the measured inhibition for "CCN(CC)S(=O)(=O)c1cccc2cc(C(=O)O)c(O)cc12"
Reply: -3.16
